# TARGET_OR_SYSTEM: EGFR del19/T790M/C797S (Homo sapiens, UniProt P00533, C797S/DEL746-750/T790M)
# Sequence (P00533 with tags, fused parts or gaps C797S/DEL746-750/T790M limits assumed): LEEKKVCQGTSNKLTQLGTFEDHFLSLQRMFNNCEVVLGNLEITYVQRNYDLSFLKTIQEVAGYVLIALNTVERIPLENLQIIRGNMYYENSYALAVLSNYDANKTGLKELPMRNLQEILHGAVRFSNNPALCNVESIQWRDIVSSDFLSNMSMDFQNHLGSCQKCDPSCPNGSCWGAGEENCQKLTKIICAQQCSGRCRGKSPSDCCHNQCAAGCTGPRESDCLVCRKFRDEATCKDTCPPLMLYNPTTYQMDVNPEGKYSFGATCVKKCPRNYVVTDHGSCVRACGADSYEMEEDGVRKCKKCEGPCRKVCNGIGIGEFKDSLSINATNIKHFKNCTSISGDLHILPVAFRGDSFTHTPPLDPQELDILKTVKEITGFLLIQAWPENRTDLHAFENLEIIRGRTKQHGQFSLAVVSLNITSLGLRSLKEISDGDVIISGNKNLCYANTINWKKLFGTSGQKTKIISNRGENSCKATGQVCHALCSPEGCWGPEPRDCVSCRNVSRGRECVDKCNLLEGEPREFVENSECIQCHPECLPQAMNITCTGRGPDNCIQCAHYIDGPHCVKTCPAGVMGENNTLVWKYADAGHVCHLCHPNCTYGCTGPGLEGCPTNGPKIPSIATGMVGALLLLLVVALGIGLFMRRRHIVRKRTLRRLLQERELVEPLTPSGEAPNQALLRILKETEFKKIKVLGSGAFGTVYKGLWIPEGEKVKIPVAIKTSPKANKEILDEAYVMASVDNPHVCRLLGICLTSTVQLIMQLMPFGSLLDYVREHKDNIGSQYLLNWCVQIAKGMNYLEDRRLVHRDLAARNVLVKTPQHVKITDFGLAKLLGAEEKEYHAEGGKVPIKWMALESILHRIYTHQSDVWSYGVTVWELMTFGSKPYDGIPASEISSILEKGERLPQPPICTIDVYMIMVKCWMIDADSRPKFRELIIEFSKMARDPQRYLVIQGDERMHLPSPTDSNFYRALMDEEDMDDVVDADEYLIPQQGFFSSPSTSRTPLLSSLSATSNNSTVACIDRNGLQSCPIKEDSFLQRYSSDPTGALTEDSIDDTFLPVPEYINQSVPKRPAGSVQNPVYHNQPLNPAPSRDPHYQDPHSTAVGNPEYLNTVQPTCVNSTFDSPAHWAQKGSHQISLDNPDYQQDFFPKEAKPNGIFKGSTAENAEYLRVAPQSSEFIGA
# TEST_DETAILS: HTRF enzyme assay, EGFR del19/T790M/C797S
# Format: biochemical
# CONDITIONS: HTRF, recombinant enzyme; read-out: EGFR del19/T790M/C797S IC50
# Method: The measurement of an activity on wild-type and EGFR mutation enzyme of the compound of the present invention was experimented by utilizing the HTRF system sold by Cisbio, as follow. The composition of the assay buffer used in the activity measurement was 50 mM Tris-HCl pH 7.5, 100 mM NaCl, 7.5 mM MgCl2, 3 mM KCl, 0.01% Tween 20, 0.1% BSA, 1 mM DTT. […]
ASSAY_READOUT: IC50 (nM)

# example entries with known answers
1) COc1cc(N2CCC(N3CCNCC3)CC2)ccc1Nc1ncc(Cl)c(Nc2ccccc2NS(C)(=O)=O)n1 ... 5
2) COc1cc(N2CCNCC2)ccc1Nc1ncc(Cl)c(Nc2ccccc2NS(C)(=O)=O)n1 ... 29
3) COc1cc(N2CCNCC2)ccc1Nc1ncc(C(F)(F)F)c(Nc2ccccc2NS(C)(=O)=O)n1 ... 7
4) COc1cc(C2CCNCC2)ccc1Nc1ncc(Br)c(Nc2ccccc2NS(N)(=O)=O)n1 ... 2
5) COc1cc(C2CCNCC2)ccc1Nc1ncc(Cl)c(Nc2ccccc2NS(N)(=O)=O)n1 ... 11

[a] COc1cc(N2CCC(N(C)C)CC2)ccc1Nc1ncc(Cl)c(Nc2ccccc2NS(C)(=O)=O)n1
[b] COc1cc(C2CCNCC2)ccc1Nc1ncc(C(F)(F)F)c(Nc2ccccc2NS(C)(=O)=O)n1
[c] COc1cc(C2CCNCC2)ccc1Nc1ncc(Br)c(Nc2ccccc2NS(C)(=O)=O)n1
[d] COc1cc(C2CCN(C3CCN(CCO)CC3)CC2)ccc1Nc1ncc(Cl)c(Nc2ccccc2NS(C)(=O)=O)n1
[e] COc1cc(C2CCNCC2)c(C)cc1Nc1ncc(Cl)c(Nc2ccccc2NS(C)(=O)=O)n1
Task field, ranking: reported IC50, descending order. Please list the labels according to the requested order.
d, b, a, e, c
(d: 34 nM, b: 14 nM, a: 6 nM, e: 3 nM, c: 2 nM)

* * *

Catalogue of compounds with associated pKd
# TARGET_OR_SYSTEM: FLT3(K663Q) (Homo sapiens (Human), UniProt P36888, K663Q)
# TEST_DETAILS: KINOMEscan binding, FLT3(K663Q)
In textbook form, pKd equals minus log to base ten of the concentration in mol/L.

1) COc1cc(N2CCC(N(C)C)CC2)ccc1Nc1ncc(Cl)c(Nc2ccccc2NS(C)(=O)=O)n1 ... 7.70

Now turn to the next compound.
Requested field: pKd. Item: COc1cc(N2CCC(N3CCN(C)CC3)CC2)ccc1Nc1ncc(Cl)c(Nc2ccccc2NS(C)(=O)=O)n1
7.41

* * *

Listed next: entries and their corresponding pKd.
# TARGET_OR_SYSTEM: FLT3(N841I) (Homo sapiens (Human), UniProt P36888, N841I)
# TEST_DETAILS: KINOMEscan binding, FLT3(N841I)
The meaning of pKd here: minus log10 of the concentration in molar units.

1. COc1cc(N2CCC(N3CCN(C)CC3)CC2)ccc1Nc1ncc(Cl)c(Nc2ccccc2NS(C)(=O)=O)n1 ... 8.19

Next, consider the following molecule.
Data request, read-out pKd, for COc1cc(N2CCC(N(C)C)CC2)ccc1Nc1ncc(Cl)c(Nc2ccccc2NS(C)(=O)=O)n1
8.42
